- System: UACC-257
- assayText: NCI tumour cell line growth inhibition, 48 h
Active and inactive are the calls of the source. No stated cut-off is given here; in the data, active = GI50 up to about 1.1 µM and inactive = higher.
Listing of recorded GI50 by entry.
measurementLabel: GI50

smilesstring=CCOC(=O)OC1(c2ccccc2)CCN(C)CC1 measurementlabel=GI50 readoutvalue="> 100 µM (inactive)"
smilesstring=COC(=O)CCNC(=O)OCc1ccccc1 measurementlabel=GI50 readoutvalue="> 100 µM (inactive)"
smilesstring=CCNC1=C(NC(=O)c2ccc(F)cc2)C(=O)c2ccccc2C1=O measurementlabel=GI50 readoutvalue="15.8 µM (inactive)"

###

- Tested on: RPMI-8226
- assayText: NCI tumour cell line growth inhibition, 48 h
Calls of active or inactive are those of the source. No stated cut-off is given here; in the data, active = GI50 up to about 1.1 µM and inactive = higher.
measurementLabel: GI50

molecule="O=C(O)C1=NN(c2ccc(S(=O)(=O)O)cc2)C2(C1)C(Cl)C(=O)N2c1nc2ccccc2s1 (stereo unspecified)" measurementlabel=GI50 readoutvalue="13.1 µM (inactive)"
molecule=Nc1ncnc2c1ccn2C/C=C\CO measurementlabel=GI50 readoutvalue="> 100 µM (inactive)"
molecule=O/N=C\c1c(O)ccc2ccccc12 measurementlabel=GI50 readoutvalue="49.8 µM (inactive)"
molecule=CCN(CC)C(=S)SNc1ccc(S(N)(=O)=O)cc1 measurementlabel=GI50 readoutvalue="20.2 µM (inactive)"
molecule="COc1ccc(C2C3COc4ccccc4C3=NN2c2ccccc2)cc1 (stereo unspecified)" measurementlabel=GI50 readoutvalue="> 100 µM (inactive)"
molecule="N#CC(C(=O)/C(=N/Nc1nc(S)nn1N)C(C#N)c1ccccc1)c1ccccc1 (stereo unspecified)" measurementlabel=GI50 readoutvalue="> 100 µM (inactive)"
